Assay: In vitro peptide stability in human serum
Type: in vitro ADME
Details: 25% human serum, 37 °C; residual starting material vs time, LC-MS/HPLC; 95% confidence interval in parentheses
Bridge positions count the residues as written; N and C are the ends. Square brackets hold non-standard residues; d marks the D form. Peptide text beside a SMILES is read from it. * marks the point of attachment. X1 = C[C@@H]1NC(=O)[C@H](CC(=O)O)NC(=O)[C@@H](N)CSCc2cc3cc(c2)CSC[C@@H](C(=O)*)NC(=O)[C@H](CSC3)NC(=O)[C@H](CO)NC1=O; S5 = C=CCCC[C@](C)(N)C(=O)O
Readout label: half-life (h)
The response must be a number in h with no trailing unit.

| Compound | Readout label | Reported |
| --- | --- | --- |
| CC[C@H](C)[C@H](NC(=O)[C@@H]1CSCc2cc3cc(c2)CSC[C@H](N)C(=O)N[C@@H](CC(=O)O)C(=O)N[C@@H](C)C(=O)N[C@@H](CO)C(=O)N[C@@H](CSC3)C(=O)N1)C(=O)N[C@@H](CCCNC(=N)N)C(=O)N[C@@H](CCC(=O)O)C(=O)N[C@H](C(=O)N[C@@H](CO)C(=O)N[C@@H](CC(C)C)C(=O)N[C@@H](CC(C)C)C(=O)N[C@@H](CCCCN)C(=O)N[C@@H](CCC(=O)O)C(=O)N[C@@H](Cc1ccc(O)cc1)C(N)=O)[C@@H](C)CC [BAMM] (X1-IREISLLKEY-NH2) | half-life | 2.1 |
| CC[C@H](C)[C@@H]1NC(=O)[C@H](C)NC(=O)[C@@](C)(NC(=O)[C@H](CO)NC(=O)[C@H](C)NC(C)=O)CCCC=CCCC[C@@](C)(C(=O)N[C@H](C(=O)N[C@@H](CO)C(=O)N[C@@H](CC(C)C)C(=O)N[C@@H](CC(C)C)C(=O)N[C@@H](CCCCN)C(=O)N[C@@H](CCC(=O)O)C(=O)N[C@@H](Cc2ccc(O)cc2)C(N)=O)[C@@H](C)CC)NC(=O)[C@H](CCCNC(=N)N)NC1=O [staple-1] (Ac-AS[S5]AIR[S5]ISLLKEY-NH2; staple 3-7) | half-life | 5.7 |
| CC[C@H](C)[C@H](NC(=O)[C@H](C)NC(=O)[C@@H](NC(=O)[C@H](CO)NC(=O)[C@H](C)NC(C)=O)[C@@H](C)O)C(=O)N[C@@H](CCCNC(=N)N)C(=O)N[C@@]1(C)CCCC=CCCC[C@@](C)(C(=O)N[C@@H](CCCCN)C(=O)N[C@@H](CCC(=O)O)C(=O)N[C@@H](Cc2ccc(O)cc2)C(N)=O)NC(=O)[C@H](CC(C)C)NC(=O)[C@H](CO)NC(=O)[C@H]([C@@H](C)CC)NC1=O [staple-2] (Ac-ASTAIR[S5]ISL[S5]KEY-NH2; staple 7-11) | half-life | 7 |

We next turn to a different compound, shown below.
Determine from records and report half-life for CC[C@H](C)[C@H](NC(=O)[C@H](C)NC(=O)[C@@H](NC(=O)[C@H](CO)NC(=O)[C@H](C)NC(C)=O)[C@@H](C)O)C(=O)N[C@@H](CCCNC(=N)N)C(=O)N[C@@H](CCC(=O)O)C(=O)N[C@H](C(=O)N[C@@H](CO)C(=O)N[C@@H](CC(C)C)C(=O)N[C@@H](CC(C)C)C(=O)N[C@H]1CSCc2cc3cc(c2)CSC[C@H](NC(=O)[C@H](Cc2ccc(O)cc2)NC(=O)[C@H](CCC(=O)O)NC1=O)C(=O)NCC(=O)N[C@H](C(N)=O)CSC3)[C@@H](C)CC
2.6

Reference for the values: paper PMC11027154
